system: Hepatitis C virus; test: Antiviral activity against Hepatitis C virus genotype 1a clinical isolate RO-38 expressing NS5B assessed as inhibition of viral replication after 4 days by luciferase reporter gene assay; type: functional, organism-based, Hepacivirus hominis; details: genotype 1a clinical isolate RO-38, 96 h
observation-type: EC50 (nM)

smiles-str	assayed-target	observation-type	unit-descriptor	val
COc1ccc(-c2cc(C(C)(C)C)c(OC)c3cc(-c4ccc(NS(C)(=O)=O)cc4)cnc23)c(=O)[nH]1	Hepatitis C virus	EC50	nM	4.3
COc1ccc(-c2cc(C(C)(C)C)c(OC)c3cc(N4CC[C@H](CNS(C)(=O)=O)C4)cnc23)c(=O)[nH]1	Hepatitis C virus	EC50	nM	9.5

---

assay: Clearance in Wistar/Han rat at 3 mg/kg, iv; format: ADME, organism-based; design: dose 3 mg/kg, route intravenous; conditions: in vivo

smiles-str	clearance
COc1ccc(-c2cc(C(C)(C)C)c(OC)c3cc(N4CC[C@H](CNS(C)(=O)=O)C4)cnc23)c(=O)[nH]1	13.8 mL/min/kg

---

test: Cmax in Wistar/Han rat at 30 mg/kg, po of amorphus MBP compound; format: ADME, organism-based; design: dose 30 mg/kg, route oral; conditions: in vivo

smiles-str	unit-descriptor	Cmax
COc1ccc(-c2cc(C(C)(C)C)c(OC)c3cc(-c4ccc(NS(C)(=O)=O)cc4)cnc23)c(=O)[nH]1	ng/mL	2100

---

assay: Drug uptake in Beagle dog at 30 mg/kg, po of amorphus MBP compound measured at 8 hrs; format: ADME, organism-based, Canis lupus familiaris; parameters: dose 30 mg/kg, route oral; settings: in vivo, read-out: Drug uptake

smiles-str	concentration at 8 h [ng/mL]
COc1ccc(-c2cc(C(C)(C)C)c(OC)c3cc(-c4ccc(NS(C)(=O)=O)cc4)cnc23)c(=O)[nH]1	990

---

assay: Cmax in Beagle dog at 3 mg/kg, po of compound as aqueous suspension; assay type: ADME, organism-based, Canis lupus familiaris; parameters: dose 3 mg/kg, route oral; conditions: in vivo

smiles-str	Cmax / ng/mL
COc1ccc(-c2cc(C(C)(C)C)c(OC)c3cc(N4CC[C@H](CNS(C)(=O)=O)C4)cnc23)c(=O)[nH]1	360

---

tested on: Hepatitis C virus; assay: Antiviral activity against Hepatitis C virus genotype 1a clinical isolate RO-24 expressing NS5B assessed as inhibition of viral replication after 4 days by luciferase reporter gene assay; type: functional, organism-based, Hepacivirus hominis; conditions: genotype 1a clinical isolate RO-24, 96 h

smiles-str	unit-descriptor	EC50
COc1ccc(-c2cc(C(C)(C)C)c(OC)c3cc(N4CC[C@H](CNS(C)(=O)=O)C4)cnc23)c(=O)[nH]1	nM	2.5

---

assay: AUC (0 to infinity) in Wistar/Han rat at 30 mg/kg, po of amorphus MBP compound; assay type: ADME, organism-based; design: time infinity, dose 30 mg/kg, route oral; conditions: plasma

smiles-str	AUC(0-inf), ng·h/mL
COc1ccc(-c2cc(C(C)(C)C)c(OC)c3cc(-c4ccc(NS(C)(=O)=O)cc4)cnc23)c(=O)[nH]1	13800

---

assay: Volume of distribution at steady state in Beagle dog at 1 mg/kg, iv; type: ADME, organism-based, Canis lupus familiaris; design: dose 1 mg/kg, route intravenous; conditions: in vivo, read-out: Vdss
observation-type: Vd (L/kg)

smiles-str	val
COc1ccc(-c2cc(C(C)(C)C)c(OC)c3cc(N4CC[C@H](CNS(C)(=O)=O)C4)cnc23)c(=O)[nH]1	1.5

---

test: Cmax in Wistar/Han rat at 30 mg/kg, po of compound as aqueous suspension; format: ADME, organism-based; parameters: dose 30 mg/kg, route oral; settings: in vivo

smiles-str	Cmax [ng/mL]
COc1ccc(-c2cc(C(C)(C)C)c(OC)c3cc(N4CC[C@H](CNS(C)(=O)=O)C4)cnc23)c(=O)[nH]1	3800

---

test: Oral bioavailability in Beagle dog at 30 mg/kg of amorphus MBP compound; assay type: ADME, organism-based, Canis lupus familiaris; details: in vivo

smiles-str	bioavailability / %
COc1ccc(-c2cc(C(C)(C)C)c(OC)c3cc(-c4ccc(NS(C)(=O)=O)cc4)cnc23)c(=O)[nH]1	31

Cited source for all entries: ChEMBL document CHEMBL3120083
